Value source: the supplement of paper PMC5998384

test system: HeLa Kyoto; test: solubility change mitosis vs G1/S (difference of NP-40 vs SDS log2 ratios) (log2 ratio difference); higher = more soluble in mitosis
Measured endpoint: solubility change mitosis (log2)
Give bare numbers.

Hi, could you look up solubility change mitosis (log2) for each item in my list?
1. MSMTLGYWDIRGLAHAIRLLLEYTDSSYEEKKYTMGDAPDYDRSQWLNEKFKLGLDFPNLPYLIDGAHKITQSNAILCYIARKHNLCGETEEEKIRVDILENQAMDVSNQLARVCYSPDFEKLKPEYLEELPTMMQHFSQFLGKRPWFVGDKITFVDFLAYDVLDLHRIFEPNCLDAFPNLKDFISRFEGLEKISAYMKSSRFLPKPLYTRVAVWGNK [GSTM4]
2. MHKAGLLGLCARAWNSVRMASSGMTRRDPLANKVALVTASTDGIGFAIARRLAQDGAHVVVSSRKQQNVDQAVATLQGEGLSVTGTVCHVGKAEDRERLVATAVKLHGGIDILVSNAAVNPFFGSIMDVTEEVWDKTLDINVKAPALMTKAVVPEMEKRGGGSVVIVSSIAAFSPSPGFSPYNVSKTALLGLTKTLAIELAPRNIRVNCLAPGLIKTSFSRMLWMDKEKEESMKETLRIRRLGEPEDCAGIVSFLCSEDASYITGETVVVGGGTPSRL [DHRS4]
3. MESSRGRPGPETDLLAVAEHQALVFGGGPGRTSSEPPAGLRVSGEEETENVGGANRHPRTSPKTSSCGVVHRPEREALENEPGPQGTLSGAGSRRGAPGAEHEPSLSSRHKNPAPPEGKPSSGRDCRRGGPGGGMDVEQQEEEDNDEEAAAGSRAGRSFSSRLQDSRSLDGLSEACGGAGSSGSAESGAGGGRRATISSPLELEGTVSRHGDLTHFVANNLQLKIRLSGAPPPPPSAPARPCPAPAPTPTPAIPPIDPEVLRDLERLSRELGGRVDRLLRGLGGAVQELTALSVGCIQTYRDAVDSLGEAVDMSIKGMYTLLARCEELERALQPVQGLARQVRDIRRTLEVLEALCK [C17ORF59]
4. MSASLVRATVRAVSKRKLQPTRAALTLTPSAVNKIKQLLKDKPEHVGVKVGVRTRGCNGLSYTLEYTKTKGDSDEEVIQDGVRVFIEKKAQLTLLGTEMDYVEDKLSSEFVFNNPNIKGTCGCGESFNI [ISCA1]

1. -0.101
2. 0.0427
3. -0.0139
4. -0.0859

----------
Give melting temperature for every item shown.
tested on: HeLa Kyoto; assay: melting temperature (median over replicates), in situ; higher = more thermally stable; settings: cell cycle stage: G1/S
Answers are plain numbers, in °C.

For orientation, consider the following solved cases.
- Substance: "MGAAHSASEEVRELEGKTGFSSDQIEQLHRRFKQLSGDQPTIRKENFNNVPDLELNPIRSKIVRAFFDNRNLRKGPSGLADEINFEDFLTIMSYFRPIDTTMDEEQVELSRKEKLRFLFHMYDSDSDGRITLEEYRNVVEELLSGNPHIEKESARSIADGAMMEAASVCMGQMEPDQVYEGITFEDFLKIWQGIDIETKMHVRFLNMETMALCH [TESC]"
  melting temperature (°C): 51.1
- Substance: "MEEYHRHCDEVGFNAEEAHNIVKECVDGVLGGEDYNHNNINQWTASIVEQSLTHLVKLGKAYKYIVTCAVVQKSAYGFHTASSCFWDTTSDGTCTVRWENRTMNCIVNVFAIAIVL [DYNLT3]"
  melting temperature (°C): 53.3
- Substance: "CIAPIN1"
  melting temperature (°C): 50.7

Kindly give each listed record's melting temperature.
1. MSLQSRLSGRLAQLRAAGQLLVPPRPRPGHLAGATRTRSSTCGPPAFLGVFGRRARTSAGVGAWGAAAVGRTAGVRTWAPLAMAAKVDLSTSTDWKEAKSFLKGLSDKQREEHYFCKDFVRLKKIPTWKEMAKGVAVKVEEPRYKKDKQLNEKISLLRSDITKLEVDAIVNAANSSLLGGGGVDGCIHRAAGPLLTDECRTLQSCKTGKAKITGGYRLPAKYVIHTVGPIAYGEPSASQAAELRSCYLSSLDLLLEHRLRSVAFPCISTGVFGYPCEAAAEIVLATLREWLEQHKDKVDRLIICVFLEKDEDIYRSRLPHYFPVA [MACROD1]
2. MSQSRHRAEAPPLEREDSGTFSLGKMITAKPGKTPIQVLHEYGMKTKNIPVYECERSDVQIHVPTFTFRVTVGDITCTGEGTSKKLAKHRAAEAAINILKANASICFAVPDPLMPDPSKQPKNQLNPIGSLQELAIHHGWRLPEYTLSQEGGPAHKREYTTICRLESFMETGKGASKKQAKRNAAEKFLAKFSNISPENHISLTNVVGHSLGCTWHSLRNSPGEKINLLKRSLLSIPNTDYIQLLSEIAKEQGFNITYLDIDELSANGQYQCLAELSTSPITVCHGSGISCGNAQSDAAHNALQYLKIIAERK [PRKRA]
3. MKPGFSPRGGGFGGRGGFGDRGGRGGRGGFGGGRGRGGGFRGRGRGGGGGGGGGGGGGRGGGGFHSGGNRGRGRGGKRGNQSGKNVMVEPHRHEGVFICRGKEDALVTKNLVPGESVYGEKRVSISEGDDKIEYRAWNPFRSKLAAAILGGVDQIHIKPGAKVLYLGAASGTTVSHVSDIVGPDGLVYAVEFSHRSGRDLINLAKKRTNIIPVIEDARHPHKYRMLIAMVDVIFADVAQPDQTRIVALNAHTFLRNGGHFVISIKANCIDSTASAEAVFASEVKKMQQENMKPQEQLTLEPYERDHAVVVGVYRPPPKVKN [FBL]
4. MGNLLKVLTCTDLEQGPNFFLDFENAQPTESEKEIYNQVNVVLKDAEGILEDLQSYRGAGHEIREAIQHPADEKLQEKAWGAVVPLVGKLKKFYEFSQRLEAALRGLLGALTSTPYSPTQHLEREQALAKQFAEILHFTLRFDELKMTNPAIQNDFSYYRRTLSRMRINNVPAEGENEVNNELANRMSLFYAEATPMLKTLSDATTKFVSENKNLPIENTTDCLSTMASVCRVMLETPEYRSRFTNEETVSFCLRVMVGVIILYDHVHPVGAFAKTSKIDMKGCIKVLKDQPPNSVEGLLNALRYTTKHLNDETTSKQIKSMLQ [FAM49B]
5. MWRSCLRLRDGGRRLLNRPAGGPSASMSPGPTIPSPARAYAPPTERKRFYQNVSITQGEGGFEINLDHRKLKTPQAKLFTVPSEALAIAVATEWDSQQDTIKYYTMHLTTLCNTSLDNPTQRNKDQLIRAAVKFLDTDTICYRVEEPETLVELQRNEWDPIIEWAEKRYGVEISSSTSIMGPSIPAKTREVLVSHLASYNTWALQGIEFVAAQLKSMVLTLGLIDLRLTVEQAVLLSRLEEEYQIQKWGNIEWAHDYELQELRARTAAGTLFIHLCSESTTVKHKLLKE [ATPAF2]

50.6
50.1
52.9
54.2
56.8

----------
system: HeLa Kyoto; experiment: solubility in G1/S (NP-40 vs SDS abundance) (log2 ratio); higher = more soluble; settings: cell cycle stage: G1/S
# thresholds on solubility in G1/S (log2) define classes: bottom end: < 0.2; midrange: ≥ 0.2 and < 0.3; top end: ≥ 0.3

- Polymer sequence: "MSLQSRLSGRLAQLRAAGQLLVPPRPRPGHLAGATRTRSSTCGPPAFLGVFGRRARTSAGVGAWGAAAVGRTAGVRTWAPLAMAAKVDLSTSTDWKEAKSFLKGLSDKQREEHYFCKDFVRLKKIPTWKEMAKGVAVKVEEPRYKKDKQLNEKISLLRSDITKLEVDAIVNAANSSLLGGGGVDGCIHRAAGPLLTDECRTLQSCKTGKAKITGGYRLPAKYVIHTVGPIAYGEPSASQAAELRSCYLSSLDLLLEHRLRSVAFPCISTGVFGYPCEAAAEIVLATLREWLEQHKDKVDRLIICVFLEKDEDIYRSRLPHYFPVA [MACROD1]"
  Qualitative label: "midrange"
- Polymer sequence: "MAVARLAAVAAWVPCRSWGWAAVPFGPHRGLSVLLARIPQRAPRWLPACRQKTSLSFLNRPDLPNLAYKKLKGKSPGIIFIPGYLSYMNGTKALAIEEFCKSLGHACIRFDYSGVGSSDGNSEESTLGKWRKDVLSIIDDLADGPQILVGSSLGGWLMLHAAIARPEKVVALIGVATAADTLVTKFNQLPVELKKEVEMKGVWSMPSKYSEEGVYNVQYSFIKEAEHHCLLHSPIPVNCPIRLLHGMKDDIVPWHTSMQVADRVLSTDVDVILRKHSDHRMREKADIQLLVYTIDDLIDKLSTIVN [ABHD10]"
  Qualitative label: "bottom end"

The entry to classify is MAAVKASTSKATRPWYSHPVYARYWQHYHQAMAWMQSHHNAYRKAVESCFNLPWYLPSALLPQSSYDNEAAYPQSFYDHHVAWQDYPCSSSHFRRSGQHPRYSSRIQASTKEDQALSKEEEMETESDAEVECDLSNMEITEELRQYFAETERHREERRRQQQLDAERLDSYVNADHDLYCNTRRSVEAPTERPGERRQAEMKRLYGDSAAKIQAMEAAVQLSFDKHCDRKQPKYWPVIPLKF [GEMIN8] ; which class holds it?
top end

Category lookup for the sequence MNIRNARPEDLMNMQHCNLLCLPENYQMKYYFYHGLSWPQLSYIAEDENGKIVGYVLAKMEEDPDDVPHGHITSLAVKRSHRRLGLAQKLMDQASRAMIENFNAKYVSLHVRKSNRAALHLYSNTLNFQISEVEPKYYADGEDAYAMKRDLTQMADELRRHLELKEKGRHVVLGAIENKVESKGNSPPSSGEACREEKGLAAEDSGGDSKDLSEVSETTESTDVKDSSEASDSAS [NAA10]
midrange

Please classify: MAAAVGRLLRASVARHVSAIPWGISATAALRPAACGRTSLTNLLCSGSSQAKLFSTSSSCHAPAVTQHAPYFKGTAVVNGEFKDLSLDDFKGKYLVLFFYPLDFTFVCPTEIVAFSDKANEFHDVNCEVVAVSVDSHFSHLAWINTPRKNGGLGHMNIALLSDLTKQISRDYGVLLEGSGLALRGLFIIDPNGVIKHLSVNDLPVGRSVEETLRLVKAFQYVETHGEVCPANWTPDSPTIKPSPAASKEYFQKVNQ [PRDX3]
top end

Each sequence maps to one class by solubility in G1/S (log2). Which class for MENTENSVDSKSIKNLEPKIIHGSESMDSGISLDNSYKMDYPEMGLCIIINNKNFHKSTGMTSRSGTDVDAANLRETFRNLKYEVRNKNDLTREEIVELMRDVSKEDHSKRSSFVCVLLSHGEEGIIFGTNGPVDLKKITNFFRGDRCRSLTGKPKLFIIQACRGTELDCGIETDSGVDDDMACHKIPVEADFLYAYSTAPGYYSWRNSKDGSWFIQSLCAMLKQYADKLEFMHILTRVNRKVATEFESFSFDATFHAKKQIPCIVSMLTKELYFYH [CASP3] ?
bottom end

Any idea which band MEDERSFSDICGGRLALQRRYYSPSCREFCLSCPRLSLRSLTAVTCTVWLAAYGLFTLCENSMILSAAIFITLLGLLGYLHFVKIDQETLLIIDSLGIQMTSSYASGKESTTFIEMGKVKDIVINEAIYMQKVIYYLCILLKDPVEPHGISQVVPVFQSAKPRLDCLIEVYRSCQEILAHQKATSTSP [PIGH] is in?
bottom end

Kindly identify the class of MSKYKLIMLRHGEGAWNKENRFCSWVDQKLNSEGMEEARNCGKQLKALNFEFDLVFTSVLNRSIHTAWLILEELGQEWVPVESSWRLNERHYGALIGLNREQMALNHGEEQVRLWRRSYNVTPPPIEESHPYYQEIYNDRRYKVCDVPLDQLPRSESLKDVLERLLPYWNERIAPEVLRGKTILISAHGNSSRALLKHLEGISDEDIINITLPTGVPILLELDENLRAVGPHQFLGDQEAIQAAIKKVEDQGKVKQAKK [BPGM] .
top end

// bin(item) where item = MELTIFILRLAIYILTFPLYLLNFLGLWSWICKKWFPYFLVRFTVIYNEQMASKKRELFSNLQEFAGPSGKLSLLEVGCGTGANFKFYPPGCRVTCIDPNPNFEKFLIKSIAENRHLQFERFVVAAGENMHQVADGSVDVVVCTLVLCSVKNQERILREVCRVLRPGGAFYFMEHVAAECSTWNYFWQQVLDPAWHLLFDGCNLTRESWKALERASFSKLKLQHIQAPLSWELVRPHIYGYAVK [METTL7A]
bottom end
